test: self-splicing fitness, log relative to wild type (ln ratio); higher = more splicing; Tetrahymena group I intron in knt gene, E. coli kanamycin selection, DiMSum; sequences stand for … in CUCUCU…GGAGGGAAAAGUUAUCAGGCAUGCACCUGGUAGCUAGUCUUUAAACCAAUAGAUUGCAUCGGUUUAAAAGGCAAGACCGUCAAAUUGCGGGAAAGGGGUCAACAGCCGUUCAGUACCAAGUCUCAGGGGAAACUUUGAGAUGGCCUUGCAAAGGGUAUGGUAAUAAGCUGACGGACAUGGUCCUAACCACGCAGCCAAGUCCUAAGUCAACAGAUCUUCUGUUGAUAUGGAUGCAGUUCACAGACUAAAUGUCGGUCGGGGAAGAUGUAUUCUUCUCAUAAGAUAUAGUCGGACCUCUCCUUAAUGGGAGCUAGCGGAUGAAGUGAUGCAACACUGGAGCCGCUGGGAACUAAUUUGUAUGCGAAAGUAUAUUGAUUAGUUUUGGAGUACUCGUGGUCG; conditions: 37 °C;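 note: selection with 25 µg/mL kanamycin versus none on LB agar overnight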
Threshold check on self-splicing fitness (ln): at or above -1 gives Fulfilled, strictly below gives Not fulfilled.

Form field: self-splicing fitness (ln) at least -1? Entry: CCUAAGCAAUAUUACGAUGC
Not fulfilled

Form field: self-splicing fitness (ln) at least -1? Entry: ACUCAGCAAUAUUACGGGCG
Fulfilled

Form field: self-splicing fitness (ln) at least -1? Entry: GUCGAGCAAUAUUACGGUAA
Not fulfilled

Form field: self-splicing fitness (ln) at least -1? Entry: CCCAAGCAAUAUUACGGAUA
Not fulfilled

Form field: self-splicing fitness (ln) at least -1? Entry: UAACAGCAAUAUUACGUCAC
Not fulfilled

Form field: self-splicing fitness (ln) at least -1? Entry: GGCAAGCAAUAUUACGAAGG
Not fulfilled

Form field: self-splicing fitness (ln) at least -1? Entry: UCCCAGCAAUAUUACGGUUC
Not fulfilled

Form field: self-splicing fitness (ln) at least -1? Entry: CCUCAGCAAUAUUACGCAAC
Not fulfilled

Form field: self-splicing fitness (ln) at least -1? Entry: AAAUAGCAAUAUUACGGUCA
Fulfilled

Form field: self-splicing fitness (ln) at least -1? Entry: ACCCAGCAAUAUUACGGAUG
Fulfilled

Form field: self-splicing fitness (ln) at least -1? Entry: CUGAAGCAAUAUUACGUUAG
Fulfilled

Form field: self-splicing fitness (ln) at least -1? Entry: AGAGAGCAAUAUUACGUGUG
Not fulfilled

Form field: self-splicing fitness (ln) at least -1? Entry: AACAAGCAAUAUUACGCGGC
Not fulfilled

Form field: self-splicing fitness (ln) at least -1? Entry: AUCUAGCAAUAUUACGAGUA
Not fulfilled

Form field: self-splicing fitness (ln) at least -1? Entry: GCCAAGCAAUAUUACGAGAC
Fulfilled

Form field: self-splicing fitness (ln) at least -1? Entry: GACUAGCAAUAUUACGUAGA
Not fulfilled

Form field: self-splicing fitness (ln) at least -1? Entry: AGAAAGCAAUAUUACGAAGG
Not fulfilled

Form field: self-splicing fitness (ln) at least -1? Entry: GAGAAGCAAUAUUACGGCUC
Not fulfilled

Form field: self-splicing fitness (ln) at least -1? Entry: CCGUAGCAAUAUUACGCGAU
Not fulfilled

Form field: self-splicing fitness (ln) at least -1? Entry: GGUGAGCAAUAUUACGGAGU
Not fulfilled

Form field: self-splicing fitness (ln) at least -1? Entry: UGAUAGCAAUAUUACGAUUA
Fulfilled

Form field: self-splicing fitness (ln) at least -1? Entry: AAAUAGCAAUAUUACGAUUU
Fulfilled

Form field: self-splicing fitness (ln) at least -1? Entry: UCGAAGCAAUAUUACGAAGC
Not fulfilled

Form field: self-splicing fitness (ln) at least -1? Entry: GGAUAGCAAUAUUACGGCGU
Fulfilled

Form field: self-splicing fitness (ln) at least -1? Entry: GUAAAGCAAUAUUACGACUC
Fulfilled

Form field: self-splicing fitness (ln) at least -1? Entry: GCACAGCAAUAUUACGGUGG
Not fulfilled
